- ASSAY NOTES: qHTS assay to identify small molecule antagonists of the estrogen related receptor (ERR) signaling pathway (AID 1224819; also: nearly all actives have a fitted effect of over 50% in size)
- RUN CONDITIONS: ERR reporter cell line, luciferase inhibition; series mostly up to 46.1 µM
- Description: National Center for Advancing Translational Sciences [NCATS] NIH Chemical Genomics Center [NCGC] U.S. Environmental Protection Agency [EPA] National Institutes of Environmental Health Sciences [NIEHS] National Toxicology Program [NTP] […] The ERR cells were dispensed at 2,000 cells/5 ul/well in 1536-well white plates using a Multidrop dispenser. […] After 30 min incubation at room temperature, the luminescence intensity in the plates was measured using a ViewLux plate reader.
Results filed as inconclusive are left out. Activity calls are given as the source filed them. Calls follow the shape of the dose curve; as a rule, active = well fitted inhibition curve with a large enough effect in the repeat runs; inconclusive = weak or mixed curves; inactive = no such curve, though single readings can be large or run the other way.
Reply using exactly one outcome from active, inactive

A selection of reference data follows.
* Nc1nc2c(ncn2COCCO)c(=O)[nH]1 | inactive
* Cc1cc(C)c(/C=C2\C(=O)Nc3ccccc32)[nH]1 | inactive
* CC(=O)[C@H]1CC[C@H]2[C@@H]3CCC4=CC(=O)CC[C@]4(C)[C@H]3CC[C@]12C | active

Continue with the next molecule.
What call does the record list for CCCCN(CCCC)CC(O)c1cc(Cl)cc2c1-c1ccc(Cl)cc1/C2=C/c1ccc(Cl)cc1 (centres undefined) ? inactive

====

- ASSAY NOTES: qHTS assay to identify small molecule antagonists of the farnesoid-X-receptor (FXR) signaling pathway - cell viability counter screen (AID 743221); also: nearly all actives have a fitted effect of over 50% in size
- RUN CONDITIONS: FXR-bla HEK293T viability, CellTiter-Glo luminescence, 16 h; series mostly up to 62.6 µM
Results filed as inconclusive are left out. The source made the active and inactive calls. Calls come from the whole dose curve; as a rule, active = well fitted cell-killing curve with a large enough effect in the repeat runs (not every such curve was filed as active); inconclusive = weak or mixed curves, or effect the other way; inactive = no such curve, though single readings can be large or run the other way.
OBSERVABLE: outcome

- COc1cc(/C=C/c2ccccc2)oc(=O)c1: inactive
- O=C(O)c1cccc(C(F)(F)F)c1: inactive
- C[Si](Cl)(c1ccccc1)c1ccccc1: inactive

====

- ASSAY NOTES: Caspase-3/7 induction in HepG2 cells by small molecules, qHTS assay (AID 1346978); also: nearly all actives have a fitted effect of over 15% in size
- RUN CONDITIONS: HepG2 caspase-3/7 activation, Caspase-Glo luminescence, 17 h; series mostly up to 92.4 µM
Results filed as inconclusive are left out. Calls of active or inactive are those of the source. Calls come from the whole dose curve; as a rule, active = well fitted activation curve with a large enough effect in the repeat runs; inconclusive = weak or mixed curves; inactive = flat fitted curve, though single readings scatter.
OBSERVABLE: outcome

See these solved cases before continuing.
- OCC(F)(F)F: inactive
- Cc1c(N)cccc1C(F)(F)F: inactive
- Cc1c(F)c(N2CCNC(C)C2)cc2c1c(=O)c(C(=O)O)cn2C1CC1 (stereo unspecified): inactive
- Nc1nc(-c2ccccc2)cs1: inactive
- CCCCCCCCCCCC(=O)OCC(C)OC(=O)CCCCC(=O)O (stereo unspecified): inactive
- CC(C)CCCCCOC(=O)CCS: inactive
- CCCCNS(=O)(=O)c1ccc(C)cc1: inactive
- Cc1cccc(C)c1NC(=O)c1ccc(N)cc1: inactive

// each compound listed below needs its outcome
1. CCn1c2ccccc2c2cc([N+](=O)[O-])ccc21
2. O=C(O)Cc1ccccc1Nc1c(Cl)cccc1Cl
3. NC(=O)c1cccc([N+](=O)[O-])c1

inactive
inactive
inactive

====

- ASSAY NOTES: qHTS RealTime-Glo MT Cell Viability Assay in HEK293 cells - 0 hour (AID 1224880); also: top concentration of the series differs between compounds; nearly all actives have a fitted effect of over 45% in size
- RUN CONDITIONS: RealTime-Glo luminescence; series mostly up to 76.8 µM
Results filed as inconclusive are left out. Active and inactive are the calls of the source. Calls follow the shape of the dose curve; as a rule, active = well fitted cell-killing curve with a large enough effect in the repeat runs; inconclusive = weak or mixed curves, or effect the other way; inactive = flat fitted curve, though single readings scatter.
OBSERVABLE: activity change, negative = cytotoxicity

* C#C[C@]1(O)CC[C@H]2[C@@H]3[C@H](C)CC4=C(CCC(=O)C4)[C@H]3CC[C@@]21C | inactive
* Clc1sc(Cl)c(Cl)c1Cl | inactive
* CC/C=C\CCCCCO | inactive
